Source of measurements: PubChem BioAssay (NCI)

Test system: HL-60(TB) leukemia
TEST_PROTOCOL: NCI tumour cell line growth inhibition, 48 h
TEST_READOUT: TGI

Examples from the recorded data:
compound=CCOC(=O)Cn1c2ccccc2c(=O)c2cc(C)c(C)c(C#N)c21 reported="> 100 µM"
compound="N#CC(N=Nc1ccccc1C(=O)O)C(N)=O (configuration not stated)" reported="> 100 µM"
compound=COC(OC)c1cc2c(cc1C=O)OCO2 reported="> 100 µM"
compound=Cc1c[n+]2c3ccccc3c3ccccc3c2s1 reported="> 61.6 µM"
compound=NC(N)=NS(=O)(=O)c1ccc(N/N=C2/CCOC2=O)cc1 reported="> 100 µM"

Looking up "CC(=O)/C(=C/c1ccccc1)C(=O)CC(C)C" , I found its TGI recorded as 90.2 µM

Looking up "O=C/C1=C/C2=Cc3ccccc3C=C(/C=C(/C=O)C1)C2" , I found its TGI recorded as > 100 µM

Looking up Cc1ccc(-c2nc3ccccc3c(=O)n2NCC2(O)OCC(O)C(O)C2O)cc1 (configuration not stated) , I found its TGI recorded as > 100 µM

Looking up "c1ccc(-c2nc3ccccc3nc2SCc2cccnc2)cc1" , I found its TGI recorded as > 100 µM

Looking up "C[C@]12CCC(=O)C(OC(=O)c3ccc([N+](=O)[O-])cc3)=C1CCC2=O" , I found its TGI recorded as > 100 µM

Looking up S=C1NC2=C(COc3ccccc32)C(c2ccc(Cl)cc2)N1 (configuration not stated) , I found its TGI recorded as 43.3 µM

Looking up "CNC(=O)NCNC(=O)NC" , I found its TGI recorded as > 100 µM

Looking up "CC(C)N1CCN(c2ccncc2S(=O)(=O)N2CCCCC2)CC1" , I found its TGI recorded as > 100 µM

Looking up Cc1[nH]c(=O)[nH]c(=O)c1/C=C/C(=O)O (tested in a mixture with another compound) , I found its TGI recorded as > 625 µM

---

Test system: HOP-92 NSCLC
TEST_PROTOCOL: NCI tumour cell line growth inhibition, 48 h; in the data active means GI50 below about 0.43 µM; inactive means the rest
The categories you may choose from are active, inactive

Worked examples, 10 molecules total:
molecule=O=C(O)[C@H](Cc1c[nH]c2ccccc12)N1C(=O)c2ccccc2C1=O category=inactive
molecule="NC(=NCc1ccccc1)C(N=Nc1ccccc1)C(=O)NCc1ccccc1 (stereo not drawn)" category=inactive
molecule=O=C(CCl)NCCNc1nccc(Nc2ccc(S(=O)(=O)Nc3ccccn3)cc2)n1 category=inactive
molecule=CSC(=NC#N)S/C=C/C(=O)c1ccccc1 category=inactive
molecule=C=C1C(=O)O[C@H]2[C@H]1CC/C(COC(=O)NCc1c[nH]c3ccccc13)=C\CC[C@@]1(C)O[C@@H]21 category=inactive
molecule=O=C1/C(=C/c2ccccc2)CN(C(=O)C(Cl)Cl)C/C1=C\c1ccccc1 category=inactive
molecule=CC(=O)/C(=C/c1ccccc1)C(=O)CC(C)C category=inactive
molecule="CN(CCCCCl)P(=O)(OCCS(=O)(=O)CC(NC(=O)CCC(N)C(=O)O)C(=O)NC(C(=O)O)c1ccccc1)OCC1OC(n2ccc(N)nc2=O)C(O)C1O (stereo not drawn)" category=inactive
molecule=O=C1C(Cl)=C(Nc2ccc(Nc3ccccc3)c(NC3=C(Cl)C(=O)c4ccccc4C3=O)c2)C(=O)c2ccccc21 category=active
molecule=COc1ccc(C=Nc2c(C(=O)Nc3cccc(Cl)c3C)sc3nc(C)c(C(=O)/C=C/c4ccc(OC)cc4)cc23)cc1 category=inactive

**Query** # lookup: test call for CCCCC(CCCCCC(CCCC)NCc1ccc2c(c1)OCO2)NCc1ccc2c(c1)OCO2 (stereo not drawn)
**Result** inactive

**Query** # lookup: test call for "CCCc1n(Cc2ccc3ccccc3c2)cc[n+]1Cc1ccc2ccccc2c1"
**Result** inactive

**Query** # lookup: test call for "N.N.N.N.N.NC(=O)[O-].[Co+3].[I-]"
**Result** inactive

---

Test system: NCI-H23 lung
TEST_PROTOCOL: NCI tumour cell line growth inhibition, 48 h
TEST_READOUT: GI50

Examples from the recorded data:
compound=C=C1C(=O)O[C@H]2[C@H]1CC/C(COC(=O)NCc1c[nH]c3ccccc13)=C\CC[C@@]1(C)O[C@@H]21 reported="8370 nM"
compound="NC(=NCc1ccccc1)C(N=Nc1ccccc1)C(=O)NCc1ccccc1 (centres undefined)" reported="5000 nM"
compound=Cc1ccc2oc(=O)cc(/C(=C3/C=CC=N3)c3ccc[nH]3)c2c1 reported="484 nM"

Looking up "COc1cc2c(c(OC)c1OC)-c1ccc(O)cc1[C@@H](NC(C)=O)CC2" , I found its GI50 recorded as 54.4 nM

Looking up "CC/C=C\C[C@H](F)C/C=C1/C(=O)C=C[C@@H]1C/C=C\CCCC(=O)OC" , I found its GI50 recorded as 2160 nM

Looking up "CC(=O)O[C@H]([C@H](OC(C)=O)[C@H](C)OC(C)=O)[C@@H](/C=C/[C@@H]1CC=CC(=O)O1)OC(C)=O" , I found its GI50 recorded as 35600 nM

Looking up "CN(C)c1ccc(/C=C/c2ccc(S(N)(=O)=O)cc2)cc1" , I found its GI50 recorded as 14200 nM

Looking up O=C(CC1(O)C(=O)N(Cc2ccccc2)c2ccc(Cl)cc21)c1ccc(C(=O)NCC2CCC3(CC2)OOC2(CCCCC2)OO3)cc1 (centres undefined) , I found its GI50 recorded as 204 nM

Looking up "Cc1nc2c(c(N3CCCc4ccccc43)n1)CCC2" , I found its GI50 recorded as < 10 nM

---

Reported TGI is given for each of the following compounds.
Test system: HL-60(TB) leukemia
TEST_PROTOCOL: NCI tumour cell line growth inhibition, 48 h
Hi! Could you send only the number? It should be in µM, unit omitted.

Examples from the recorded data:
compound=COC(=O)c1ccccc1N(C(=O)c1ccccc1)c1ccccc1C reported=43.1
compound=O=C(/C=C/c1ccc(Cl)cc1)c1ccccc(=O)c1O reported=2.04

Alright, here's another compound for you.
Looking up CO[C@H]1C=CO[C@@]2(C)Oc3c(C)c(O)c4c(O)c(c(CN5CCN(C)CC5)c(O)c4c3C2=O)NC(=O)/C(C)=C\C=C[C@H](C)[C@H](O)C(C)[C@@H](O)C(C)[C@H](OC(C)=O)[C@@H]1C (stereo partly specified) , I found its TGI recorded as 83.7

---

Tested on: K-562 leukemia
TEST_PROTOCOL: NCI tumour cell line growth inhibition, 48 h; in the data active = GI50 below about 0.43 µM; inactive = the rest
The categories you may choose from are active, inactive

compound=NCCc1ccc(S(=O)(=O)F)cc1 category=inactive
compound=CCCc1n(Cc2ccc3ccccc3c2)cc[n+]1Cc1ccc2ccccc2c1 category=active
compound=O=C(CCl)NCCNc1nccc(Nc2ccc(S(=O)(=O)Nc3ccccn3)cc2)n1 category=inactive
compound=CN(C)c1ccc(/C=C/c2ccc(S(N)(=O)=O)cc2)cc1 category=inactive
compound=COc1ccc(/C=C2\CN(C(=O)C(Cl)Cl)C/C(=C\c3ccc(OC)cc3)C2=O)cc1 category=active
compound=N.N.N.N.N.NC(=O)[O-].[Co+3].[I-] category=inactive
compound=COc1cccc(/C=C/C(=O)c2ccc(SC)cc2)c1OC category=inactive
compound=Oc1ccc(Nc2ccc3ccccc3c2)cc1 category=inactive

**Query** # lookup: test call for CCCCC(CCCCCC(CCCC)NCc1ccc2c(c1)OCO2)NCc1ccc2c(c1)OCO2 (stereo unspecified)
**Result** active

**Query** # lookup: test call for "C[C@H]1/C(=C/C(=O)OCCN(C)C)CC[C@H]2[C@H]1C(=O)C[C@H]1C(C)(C)[C@@H](O)CC[C@]21C"
**Result** inactive

**Query** # lookup: test call for "COc1ccc(C#Cc2ccc(=O)oc2-c2cc(OC)c(OC)c(OC)c2)cc1O"
**Result** inactive

**Query** # lookup: test call for "CC/C=C\C[C@H](F)C/C=C1/C(=O)C=C[C@@H]1C/C=C\CCCC(=O)OC"
**Result** inactive

**Query** # lookup: test call for C[C@@]1(C(=O)O)CCC[C@]2(C)C1CC[C@@]13C[C@@](O)(CC[C@]12O)[C@@]1(CO1)C3 (stereo partly specified)
**Result** inactive

---

Reported TGI is given for each of the following compounds.
Test system: IGROV1 ovarian
TEST_PROTOCOL: NCI tumour cell line growth inhibition, 48 h

Examples from the recorded data:
compound="COc1cc(C2c3cc4c(cc3[C@@H](Nc3cccc(CO)c3)C3COC(=O)[C@H]23)OCO4)cc(OC)c1O (stereo partly drawn)" reported="17 µM"
compound="COc1cc(C2C3=C(COC3=O)Oc3cc4c(cc32)OCO4)ccc1O (stereo not drawn)" reported="> 100 µM"
compound=NCCSc1cc(O)c2c(c1N)C(=O)c1ccccc1C2=O reported="65.9 µM"

Looking up C=CC(O)(CBr)CCC(Br)C(=C)C (stereo not drawn) , I found its TGI recorded as > 10 µM

Looking up COC(=O)c1cc(C(=O)OC)c(CC(=O)C(=O)NC2C3CC4CC(C3)CC2C4)nc1CC(=O)C(=O)NC1C2CC3CC(C2)CC1C3 (stereo not drawn) , I found its TGI recorded as > 100 µM

Looking up CN(CCCCCl)P(=O)(OCCS(=O)(=O)CC(NC(=O)CCC(N)C(=O)O)C(=O)NC(C(=O)O)c1ccccc1)OCC1OC(n2ccc(N)nc2=O)C(O)C1O (stereo not drawn) , I found its TGI recorded as > 47.3 µM

Looking up COC(=O)C1CCC(=O)N1C(c1cc(OC)c(OC)c(OC)c1)c1cc(OC)c(OC)c(OC)c1 (stereo not drawn) , I found its TGI recorded as > 100 µM

Looking up "CC1(C)S[C@@H]2[C@H](N3C(=O)c4ccccc4C3=O)CN2[C@H]1NC(=O)N[C@@H]1N2C[C@@H](N3C(=O)c4ccccc4C3=O)[C@H]2SC1(C)C" , I found its TGI recorded as > 100 µM
